Give pKa for every item shown.
Assay: Dissociation constant, pKa of compound
Format: physicochemical
Hey, just send me the number, nothing else.

Problem: Tell me the measured pKa of COc1cc(N2CCN(C)CC2)c(-c2cnn(C)c2)cc1Nc1ncc(Cl)c(Nc2ccccc2P(C)(C)=O)n1 , please.
Result: 7.6

Problem: Another molecule: COc1cc(N2CCC(N(C)C)CC2)c(-c2cnn(C)c2)cc1Nc1ncc(Cl)c(Nc2ccccc2P(C)(C)=O)n1
Result: 9.4

----------
Please respond with reported fraction unbound for every item in the list.
Assay: Plasma protein binding in human plasma assessed as unbound fraction
Assay type: ADME, cell-free
Settings: read-out: Fu
Give the figure only, with no unit attached.

Problem: Give its fraction unbound value. Item: CCP(=O)(CC)c1ccccc1Nc1nc(Nc2cc(-c3cnn(C)c3)c(N3CCOCC3)cc2OC)ncc1Cl
Result: 0.041

Problem: What about COc1cc(N2CCC(N3CCN(C)CC3)CC2)c(-c2cnn(C)c2)cc1Nc1ncc(Cl)c(Nc2ccccc2P(C)(C)=O)n1 ?
Result: 0.228

Problem: Next entry: COc1cc(N2CCOCC2)c(-c2cn[nH]c2)cc1Nc1ncc(Cl)c(Nc2ccccc2P(C)(C)=O)n1
Result: 0.009

Problem: One more compound: COc1cc(N2CCOCC2)c(-c2cnn(C)c2)cc1Nc1ncc(Cl)c(Nc2ccccc2P(C)(C)=O)n1
Result: 0.07
